Each record here notes measured Absorbance (450 nm).
Target: recombinant cynomolgus monkey CD3ε/δ heterodimer (cynomolgus monkey) (UniProt Q95LI5)
Sequence (Q95LI5 22-117, stated change not applied, chain 1 of 2): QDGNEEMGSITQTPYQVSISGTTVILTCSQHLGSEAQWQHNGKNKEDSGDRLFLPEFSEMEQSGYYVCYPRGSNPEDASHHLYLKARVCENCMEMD
Sequence (Q95LI8 22-105, stated change not applied, chain 2 of 2, further chain): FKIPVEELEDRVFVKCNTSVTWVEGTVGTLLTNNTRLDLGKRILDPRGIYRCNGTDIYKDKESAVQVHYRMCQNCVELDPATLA
Assay: ELISA, coated CD3ε/δ

binder: A11 (antibody, human IgG1, lambda, L234A L235A, V domains shown) VH: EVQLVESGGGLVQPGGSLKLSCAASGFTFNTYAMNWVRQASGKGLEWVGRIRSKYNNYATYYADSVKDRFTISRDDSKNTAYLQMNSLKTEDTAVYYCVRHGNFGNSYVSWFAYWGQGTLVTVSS VL: QAVVTQEPSLTVSPGGTVTLTCRSSTGAVTTSNYANWVQQKPGQAPRTLIGGTNKRAPWTPARFSGSLLGGKAALTLSGAQPEDEAEYYCALWYSNLWVFGGGTKLTVLG
Absorbance (450 nm): 0.105
//
binder: F03 (antibody, human IgG1, lambda, L234A L235A, V domains shown) VH: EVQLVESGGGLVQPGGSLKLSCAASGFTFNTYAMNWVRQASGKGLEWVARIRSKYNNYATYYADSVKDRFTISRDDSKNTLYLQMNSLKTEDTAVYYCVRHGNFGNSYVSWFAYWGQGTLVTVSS VL: QAVVTQEPSLTVSPGGTVTLTCRSSTGAVTTSNYANWFQQKPGQAPRTLIGGTNKRAPWTPARFSGSLLGGKAALTLSGAQPEDEAEYYCALWYSNLWVFGGGTKLTVLG
Absorbance (450 nm): 0.101
//
binder: H05 (antibody, human IgG1, lambda, L234A L235A, V domains shown) VH: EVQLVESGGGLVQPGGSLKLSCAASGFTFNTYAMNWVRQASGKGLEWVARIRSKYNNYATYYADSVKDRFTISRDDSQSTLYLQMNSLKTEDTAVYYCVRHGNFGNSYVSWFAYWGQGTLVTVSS VL: QAVVTQEPSLTVSPGGTVTLTCRSSTGAVTTSNYANWFQQKPGQAPRGLIYGTNKRAPWTPARFSGSLLGGKAALTLSGAQPEDEAEYYCALWYSNLWVFGGGTKLTVLG
Absorbance (450 nm): 0.061
